system tested: UniProtKB P28223
Sequence (P28223 whole entry): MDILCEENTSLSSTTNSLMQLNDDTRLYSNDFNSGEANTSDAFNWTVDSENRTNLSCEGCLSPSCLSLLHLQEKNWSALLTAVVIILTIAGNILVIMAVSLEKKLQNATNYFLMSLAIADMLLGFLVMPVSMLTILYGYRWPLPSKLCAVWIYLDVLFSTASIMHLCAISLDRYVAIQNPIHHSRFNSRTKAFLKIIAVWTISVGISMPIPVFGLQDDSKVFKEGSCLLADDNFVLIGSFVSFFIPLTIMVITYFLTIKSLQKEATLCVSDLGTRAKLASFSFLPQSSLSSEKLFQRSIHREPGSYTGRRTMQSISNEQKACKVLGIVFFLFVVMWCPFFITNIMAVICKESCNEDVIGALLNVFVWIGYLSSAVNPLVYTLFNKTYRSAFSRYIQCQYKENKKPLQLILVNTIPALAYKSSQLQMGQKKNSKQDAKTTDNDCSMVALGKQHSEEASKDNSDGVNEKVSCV
pKi: −log10 of the molar value.
readout label: pKi

>>> df
                                   compound  readout_label  readout_value
0  CCN(C(=O)[C@@H]1C=C2c3cccc4[nH]cc(c34)C[C@H]2N(C)C1)C1CC1 [ECPLA, N-ethyl-N-cyclopropyl lysergamide]            pKi           7.78

====

system tested: α1D (Homo sapiens, UniProt P25100)
Sequence (P25100 1-572): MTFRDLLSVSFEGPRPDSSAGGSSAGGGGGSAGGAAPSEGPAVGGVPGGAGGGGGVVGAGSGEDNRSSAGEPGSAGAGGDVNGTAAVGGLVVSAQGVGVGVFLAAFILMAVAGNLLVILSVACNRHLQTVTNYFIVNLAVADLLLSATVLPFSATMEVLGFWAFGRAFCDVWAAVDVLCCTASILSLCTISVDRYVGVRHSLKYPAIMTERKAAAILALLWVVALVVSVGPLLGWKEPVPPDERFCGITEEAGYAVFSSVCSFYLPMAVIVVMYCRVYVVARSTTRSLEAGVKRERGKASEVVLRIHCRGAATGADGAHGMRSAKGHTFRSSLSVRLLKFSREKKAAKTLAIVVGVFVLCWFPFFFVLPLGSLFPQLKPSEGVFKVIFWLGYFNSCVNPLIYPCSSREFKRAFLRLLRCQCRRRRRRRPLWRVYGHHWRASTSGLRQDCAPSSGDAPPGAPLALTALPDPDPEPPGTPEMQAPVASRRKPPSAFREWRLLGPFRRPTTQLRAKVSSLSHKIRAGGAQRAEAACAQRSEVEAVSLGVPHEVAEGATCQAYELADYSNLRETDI
pKi: −log10 of the molar value.
readout label: pKi

                                   compound                       system_tested  readout_label  readout_value
0  CCN(C(=O)[C@@H]1C=C2c3cccc4[nH]cc(c34)C[C@H]2N(C)C1)C1CC1 [ECPLA, N-ethyl-N-cyclopropyl lysergamide]  α1D (Homo sapiens, UniProt P25100)            pKi         < 5.00

====

system tested: 5-HT5A (Homo sapiens)
Sequence (P47898 whole entry): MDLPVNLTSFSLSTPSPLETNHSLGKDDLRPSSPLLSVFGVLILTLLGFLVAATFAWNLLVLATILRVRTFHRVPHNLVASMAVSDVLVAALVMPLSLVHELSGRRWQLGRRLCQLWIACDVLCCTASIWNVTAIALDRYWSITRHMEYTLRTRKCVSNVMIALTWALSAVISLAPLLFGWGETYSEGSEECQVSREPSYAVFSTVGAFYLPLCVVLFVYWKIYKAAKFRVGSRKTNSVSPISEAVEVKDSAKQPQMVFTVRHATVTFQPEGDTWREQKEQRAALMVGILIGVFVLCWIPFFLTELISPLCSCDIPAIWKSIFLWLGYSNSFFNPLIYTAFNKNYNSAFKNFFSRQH
pKi: −log10 of the molar value.
readout label: pKi

In [3]: df
Out[3]:
                                   molecule  readout_value
0  CCN(C(=O)[C@@H]1C=C2c3cccc4[nH]cc(c34)C[C@H]2N(C)C1)C1CC1 [ECPLA, N-ethyl-N-cyclopropyl lysergamide]           8.07

====

system tested: D2 (Homo sapiens, UniProt P14416)
Sequence (P14416 whole entry): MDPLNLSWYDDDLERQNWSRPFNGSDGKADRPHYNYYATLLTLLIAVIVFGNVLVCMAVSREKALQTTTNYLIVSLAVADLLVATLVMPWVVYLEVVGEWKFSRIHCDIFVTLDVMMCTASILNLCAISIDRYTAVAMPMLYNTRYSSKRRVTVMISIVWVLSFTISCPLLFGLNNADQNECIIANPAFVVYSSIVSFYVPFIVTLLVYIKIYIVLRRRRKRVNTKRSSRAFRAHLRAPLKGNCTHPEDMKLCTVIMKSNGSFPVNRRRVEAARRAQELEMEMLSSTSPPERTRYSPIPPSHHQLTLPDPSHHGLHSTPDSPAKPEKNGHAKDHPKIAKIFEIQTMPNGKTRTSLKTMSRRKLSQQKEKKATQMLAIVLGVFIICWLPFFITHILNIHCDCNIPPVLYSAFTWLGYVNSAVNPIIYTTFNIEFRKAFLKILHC
test: NIMH PDSP competitive binding, D2
experimental parameters: [3H]N-methylspiperone; cloned receptor; mean ± SEM
pKi: −log10 of the molar value.
readout label: pKi

In [3]: df
Out[3]:
                                   compound  readout_value
0  CCN(C(=O)[C@@H]1C=C2c3cccc4[nH]cc(c34)C[C@H]2N(C)C1)C1CC1 [ECPLA, N-ethyl-N-cyclopropyl lysergamide]           6.82

====

system tested: UniProtKB P50406
Sequence (P50406 whole entry): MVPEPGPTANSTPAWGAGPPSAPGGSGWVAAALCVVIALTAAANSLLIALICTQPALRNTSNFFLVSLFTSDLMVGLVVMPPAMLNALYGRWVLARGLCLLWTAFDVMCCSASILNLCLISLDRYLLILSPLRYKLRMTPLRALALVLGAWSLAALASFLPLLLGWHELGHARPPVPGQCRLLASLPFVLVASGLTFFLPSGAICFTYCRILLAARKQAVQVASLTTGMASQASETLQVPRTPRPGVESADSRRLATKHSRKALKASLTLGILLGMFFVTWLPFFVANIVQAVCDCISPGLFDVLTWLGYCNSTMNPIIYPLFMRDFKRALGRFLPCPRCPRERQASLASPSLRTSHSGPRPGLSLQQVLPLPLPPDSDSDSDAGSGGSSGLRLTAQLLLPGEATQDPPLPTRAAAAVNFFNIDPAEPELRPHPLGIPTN
readout label: Ki (nM)

>>> print(df.to_string())
                                   molecule     system_tested  readout_value
0  CCN(C(=O)[C@@H]1C=C2c3cccc4[nH]cc(c34)C[C@H]2N(C)C1)C1CC1 [ECPLA, N-ethyl-N-cyclopropyl lysergamide]  UniProtKB P50406           21.7

====

system tested: β3 (Homo sapiens, UniProt P13945)
Sequence (P13945 whole entry): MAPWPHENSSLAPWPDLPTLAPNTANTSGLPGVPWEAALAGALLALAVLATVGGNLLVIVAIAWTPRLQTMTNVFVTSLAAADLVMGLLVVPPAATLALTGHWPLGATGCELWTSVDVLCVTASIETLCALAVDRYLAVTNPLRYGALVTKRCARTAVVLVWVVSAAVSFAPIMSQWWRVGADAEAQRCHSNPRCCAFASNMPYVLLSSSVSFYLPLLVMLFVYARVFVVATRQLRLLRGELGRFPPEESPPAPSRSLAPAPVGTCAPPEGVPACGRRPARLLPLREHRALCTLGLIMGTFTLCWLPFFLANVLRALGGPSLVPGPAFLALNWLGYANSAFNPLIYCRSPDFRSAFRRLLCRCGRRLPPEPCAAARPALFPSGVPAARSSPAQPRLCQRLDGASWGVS
pKi: −log10 of the molar value.
readout label: pKi

>>> print(df.to_string())
                                   compound  readout_value
0  CCN(C(=O)[C@@H]1C=C2c3cccc4[nH]cc(c34)C[C@H]2N(C)C1)C1CC1 [ECPLA, N-ethyl-N-cyclopropyl lysergamide]           5.62

====

system tested: UniProtKB P35368
Sequence (P35368 whole entry): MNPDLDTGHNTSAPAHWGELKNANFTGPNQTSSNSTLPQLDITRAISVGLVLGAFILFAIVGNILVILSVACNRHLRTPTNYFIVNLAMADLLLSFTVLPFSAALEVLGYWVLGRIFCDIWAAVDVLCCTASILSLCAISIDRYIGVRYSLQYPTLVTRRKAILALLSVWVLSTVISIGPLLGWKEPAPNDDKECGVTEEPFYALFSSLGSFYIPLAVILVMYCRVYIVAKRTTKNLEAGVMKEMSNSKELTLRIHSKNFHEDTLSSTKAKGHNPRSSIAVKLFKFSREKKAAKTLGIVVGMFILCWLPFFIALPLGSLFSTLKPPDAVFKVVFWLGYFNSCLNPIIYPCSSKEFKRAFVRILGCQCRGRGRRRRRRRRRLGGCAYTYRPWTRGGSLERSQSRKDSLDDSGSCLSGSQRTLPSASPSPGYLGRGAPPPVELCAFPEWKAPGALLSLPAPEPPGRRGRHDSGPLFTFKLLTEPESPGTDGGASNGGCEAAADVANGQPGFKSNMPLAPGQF
readout label: Ki (nM)

In [3]: df
Out[3]:
                                   molecule     system_tested  readout_value
0  CCN(C(=O)[C@@H]1C=C2c3cccc4[nH]cc(c34)C[C@H]2N(C)C1)C1CC1 [ECPLA, N-ethyl-N-cyclopropyl lysergamide]  UniProtKB P35368           1950

====

system tested: H2 (Homo sapiens, UniProt P25021)
pKi: −log10 of the molar value.
readout label: pKi

                                   compound  readout_value
0  CCN(C(=O)[C@@H]1C=C2c3cccc4[nH]cc(c34)C[C@H]2N(C)C1)C1CC1 [ECPLA, N-ethyl-N-cyclopropyl lysergamide]           6.05

====

system tested: H4 (Homo sapiens, UniProt Q9H3N8)
Sequence (Q9H3N8 whole entry): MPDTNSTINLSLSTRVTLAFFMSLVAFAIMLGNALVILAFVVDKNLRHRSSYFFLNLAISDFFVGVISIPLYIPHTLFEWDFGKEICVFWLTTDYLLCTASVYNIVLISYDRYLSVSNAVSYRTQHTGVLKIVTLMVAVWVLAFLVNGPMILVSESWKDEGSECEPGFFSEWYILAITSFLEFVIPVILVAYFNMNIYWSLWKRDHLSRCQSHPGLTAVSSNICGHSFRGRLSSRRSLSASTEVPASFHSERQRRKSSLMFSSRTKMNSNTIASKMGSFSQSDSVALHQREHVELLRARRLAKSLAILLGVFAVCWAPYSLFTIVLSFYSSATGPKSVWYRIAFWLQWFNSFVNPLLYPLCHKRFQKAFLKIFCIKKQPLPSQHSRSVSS
pKi: −log10 of the molar value.
readout label: pKi

>>> print(df.to_string())
                                   compound                      system_tested  readout_value
0  CCN(C(=O)[C@@H]1C=C2c3cccc4[nH]cc(c34)C[C@H]2N(C)C1)C1CC1 [ECPLA, N-ethyl-N-cyclopropyl lysergamide]  H4 (Homo sapiens, UniProt Q9H3N8)         < 5.00

====

system tested: 5-HT1B (Homo sapiens)
readout label: Ki (nM)

>>> print(df.to_string())
                                   compound          system_tested  readout_label  readout_value
0  CCN(C(=O)[C@@H]1C=C2c3cccc4[nH]cc(c34)C[C@H]2N(C)C1)C1CC1 [ECPLA, N-ethyl-N-cyclopropyl lysergamide]  5-HT1B (Homo sapiens)             Ki           42.3

====

system tested: UniProt P34969
readout label: Ki (nM)

>>> print(df.to_string())
                                   compound  uom  readout_value
0  CCN(C(=O)[C@@H]1C=C2c3cccc4[nH]cc(c34)C[C@H]2N(C)C1)C1CC1 [ECPLA, N-ethyl-N-cyclopropyl lysergamide]   nM           27.3

====

system tested: D5 (Homo sapiens)
Sequence (P21918 whole entry): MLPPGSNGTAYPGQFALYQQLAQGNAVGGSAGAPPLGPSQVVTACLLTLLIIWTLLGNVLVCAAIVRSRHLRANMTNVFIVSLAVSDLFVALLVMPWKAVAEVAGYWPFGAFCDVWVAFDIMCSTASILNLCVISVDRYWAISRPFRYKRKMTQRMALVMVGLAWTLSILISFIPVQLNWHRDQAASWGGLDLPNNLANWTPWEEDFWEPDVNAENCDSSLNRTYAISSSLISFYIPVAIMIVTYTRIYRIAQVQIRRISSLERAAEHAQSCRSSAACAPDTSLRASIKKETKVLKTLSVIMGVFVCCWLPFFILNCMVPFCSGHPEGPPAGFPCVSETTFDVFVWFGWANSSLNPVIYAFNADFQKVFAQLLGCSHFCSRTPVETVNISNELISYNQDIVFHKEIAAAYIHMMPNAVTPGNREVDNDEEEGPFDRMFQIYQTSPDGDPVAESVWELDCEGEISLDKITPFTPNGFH
pKi: −log10 of the molar value.
readout label: pKi

                                   compound      system_tested  readout_label  readout_value
0  CCN(C(=O)[C@@H]1C=C2c3cccc4[nH]cc(c34)C[C@H]2N(C)C1)C1CC1 [ECPLA, N-ethyl-N-cyclopropyl lysergamide]  D5 (Homo sapiens)            pKi           5.82

====

system tested: α2C (Homo sapiens, UniProt P18825)
Sequence (P18825 1-462): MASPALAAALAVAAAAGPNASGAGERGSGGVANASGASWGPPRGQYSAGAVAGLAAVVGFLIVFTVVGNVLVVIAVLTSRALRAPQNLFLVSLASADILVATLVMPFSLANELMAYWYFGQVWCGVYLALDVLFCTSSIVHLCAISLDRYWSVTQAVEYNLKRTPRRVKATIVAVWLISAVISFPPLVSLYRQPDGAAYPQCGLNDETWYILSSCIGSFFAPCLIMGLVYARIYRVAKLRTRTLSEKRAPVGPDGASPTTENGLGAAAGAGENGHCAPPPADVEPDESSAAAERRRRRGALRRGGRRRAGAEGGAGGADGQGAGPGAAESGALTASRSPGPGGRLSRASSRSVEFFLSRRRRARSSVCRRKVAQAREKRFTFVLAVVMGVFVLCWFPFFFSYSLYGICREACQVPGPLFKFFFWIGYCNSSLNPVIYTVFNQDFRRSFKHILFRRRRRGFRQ
readout label: Ki (nM)

                                   molecule  uom  readout_value
0  CCN(C(=O)[C@@H]1C=C2c3cccc4[nH]cc(c34)C[C@H]2N(C)C1)C1CC1 [ECPLA, N-ethyl-N-cyclopropyl lysergamide]   nM            438

====

system tested: β2 (Homo sapiens)
Sequence (P07550 whole entry): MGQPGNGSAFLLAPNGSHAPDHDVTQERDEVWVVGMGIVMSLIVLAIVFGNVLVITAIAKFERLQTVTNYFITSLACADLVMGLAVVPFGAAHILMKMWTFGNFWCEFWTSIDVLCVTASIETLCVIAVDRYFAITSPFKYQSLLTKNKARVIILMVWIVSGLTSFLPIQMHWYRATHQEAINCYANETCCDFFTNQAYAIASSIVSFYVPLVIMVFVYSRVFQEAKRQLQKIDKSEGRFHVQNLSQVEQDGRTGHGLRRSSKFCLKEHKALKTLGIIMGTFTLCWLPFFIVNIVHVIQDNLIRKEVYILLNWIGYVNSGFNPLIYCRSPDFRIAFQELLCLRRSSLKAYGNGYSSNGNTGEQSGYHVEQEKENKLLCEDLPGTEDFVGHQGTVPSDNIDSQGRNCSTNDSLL
readout label: Ki

                                   compound  readout_value
0  CCN(C(=O)[C@@H]1C=C2c3cccc4[nH]cc(c34)C[C@H]2N(C)C1)C1CC1 [ECPLA, N-ethyl-N-cyclopropyl lysergamide]        > 10 µM

====

system tested: UniProt P35367
Sequence (P35367 whole entry): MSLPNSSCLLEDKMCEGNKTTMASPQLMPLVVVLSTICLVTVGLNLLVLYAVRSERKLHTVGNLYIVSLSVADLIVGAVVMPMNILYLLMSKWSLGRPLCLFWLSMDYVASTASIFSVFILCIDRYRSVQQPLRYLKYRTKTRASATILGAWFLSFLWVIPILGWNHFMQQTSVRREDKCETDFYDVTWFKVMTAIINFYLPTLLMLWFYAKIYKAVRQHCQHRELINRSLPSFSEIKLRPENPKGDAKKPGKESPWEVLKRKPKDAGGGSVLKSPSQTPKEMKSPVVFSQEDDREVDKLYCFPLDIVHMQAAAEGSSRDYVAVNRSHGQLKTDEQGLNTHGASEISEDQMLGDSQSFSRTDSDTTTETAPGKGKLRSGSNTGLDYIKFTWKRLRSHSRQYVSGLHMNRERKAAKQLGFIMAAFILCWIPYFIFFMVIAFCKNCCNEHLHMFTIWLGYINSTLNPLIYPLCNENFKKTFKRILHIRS
readout label: Ki

In [3]: df
Out[3]:
                                   compound   system_tested  readout_value
0  CCN(C(=O)[C@@H]1C=C2c3cccc4[nH]cc(c34)C[C@H]2N(C)C1)C1CC1 [ECPLA, N-ethyl-N-cyclopropyl lysergamide]  UniProt P35367        > 10 µM

====

system tested: 5-HT2B (Homo sapiens)
Sequence (P41595 whole entry): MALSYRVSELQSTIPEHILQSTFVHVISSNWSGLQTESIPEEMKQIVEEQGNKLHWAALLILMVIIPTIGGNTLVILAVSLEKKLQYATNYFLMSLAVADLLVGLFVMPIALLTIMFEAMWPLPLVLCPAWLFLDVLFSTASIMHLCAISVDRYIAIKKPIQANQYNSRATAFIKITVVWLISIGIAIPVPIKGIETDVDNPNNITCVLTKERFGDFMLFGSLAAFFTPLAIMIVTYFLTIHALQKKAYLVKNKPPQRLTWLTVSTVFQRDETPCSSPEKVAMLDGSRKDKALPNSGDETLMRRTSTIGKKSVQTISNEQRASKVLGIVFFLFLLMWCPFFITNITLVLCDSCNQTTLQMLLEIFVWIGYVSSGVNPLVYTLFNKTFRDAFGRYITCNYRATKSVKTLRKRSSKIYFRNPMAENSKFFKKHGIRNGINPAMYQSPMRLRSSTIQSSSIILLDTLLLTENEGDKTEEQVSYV
test: Gq-mediated calcium flux in HEK293 cells, h5-HT2B
experimental parameters: Ca2+ mobilization, HEK293 cells
readout label: EC50 (µM)

                                   molecule  readout_label  readout_value
0  CCN(C(=O)[C@@H]1C=C2c3cccc4[nH]cc(c34)C[C@H]2N(C)C1)C1CC1 [ECPLA, N-ethyl-N-cyclopropyl lysergamide]           EC50         0.0367
